System: Staphylococcus aureus
Experiment: Antibacterial activity against methicillin-resistant Staphylococcus aureus 531220 clinical isolate after 20 to 24 hrs by two-fold microdilution method
Type: functional
The entries below come with measured MIC values attached.
Report the value in µg/mL with no unit label.

A selection of reference data follows.
O=C1c2cccnc2C(=O)c2c1c(C(=O)OCCCCN1CCOCC1)c1ccc(Br)cn21	0.25
O=C1c2cccnc2C(=O)c2c1c(C(=O)OCCCCCCN1CCCCC1)c1ccc(Br)cn21	0.25

Turning now to a further molecule:
// MIC lookup, key: CN(C)CCCCCOC(=O)c1c2c(n3cc(Br)ccc13)C(=O)c1ncccc1C2=O
0.25

###

Test system: Staphylococcus aureus
Assay: Antibacterial activity against methicillin-resistant Staphylococcus aureus 908046 clinical isolate after 20 to 24 hrs by two-fold microdilution method
Type: functional
metric: MIC (µg/mL)
Report the value in µg/mL with no unit label.

A selection of reference data follows.
O=C1c2cccnc2C(=O)c2c1c(C(=O)OCCCCCCN1CCCCC1)c1ccc(Br)cn21	0.031
CN1CCN(CCCCCCOC(=O)c2c3c(n4cc(Br)ccc24)C(=O)c2ncccc2C3=O)CC1	0.063
O=C1c2cccnc2C(=O)c2c1c(C(=O)OCCCCCN1CCOCC1)c1ccc(Br)cn21	0.031
O=C1c2cccnc2C(=O)c2c1c(C(=O)OCCCCN1CCOCC1)c1ccc(Br)cn21	0.125

// MIC lookup, key: CN(C)CCCCCOC(=O)c1c2c(n3cc(Br)ccc13)C(=O)c1ncccc1C2=O
0.063

###

Tested on: Staphylococcus aureus
Assay: Antibacterial activity against methicillin-resistant Staphylococcus aureus 111625 clinical isolate after 20 to 24 hrs by two-fold microdilution method
Assay type: functional
The entries below come with measured MIC values attached.
Report the value in mg/L with no unit label.

A selection of reference data follows.
CN1CCN(CCCCCCOC(=O)c2c3c(n4cc(Br)ccc24)C(=O)c2ncccc2C3=O)CC1	0.125
O=C1c2cccnc2C(=O)c2c1c(C(=O)OCCCCN1CCOCC1)c1ccc(Br)cn21	0.5
O=C1c2cccnc2C(=O)c2c1c(C(=O)OCCCCCCN1CCCCC1)c1ccc(Br)cn21	0.063

Turning now to a further compound:
// MIC lookup, key: CN(C)CCCCCOC(=O)c1c2c(n3cc(Br)ccc13)C(=O)c1ncccc1C2=O
0.25

###

System: Staphylococcus aureus
Test: Antibacterial activity against methicillin-resistant Staphylococcus aureus 502025 clinical isolate after 20 to 24 hrs by two-fold microdilution method
Assay type: functional
The entries below come with measured MIC values attached.
Report the value in µg/mL with no unit label.

A selection of reference data follows.
O=C1c2cccnc2C(=O)c2c1c(C(=O)OCCCCCN1CCOCC1)c1ccc(Br)cn21	0.125
O=C1c2cccnc2C(=O)c2c1c(C(=O)OCCCCCCN1CCCCC1)c1ccc(Br)cn21	0.063
CN(C)CCCCCOC(=O)c1c2c(n3cc(Br)ccc13)C(=O)c1ncccc1C2=O	0.5
O=C1c2cccnc2C(=O)c2c1c(C(=O)OCCCCN1CCOCC1)c1ccc(Br)cn21	0.5

// lookup MIC | system=Staphylococcus aureus | key= CN1CCN(CCCCCCOC(=O)c2c3c(n4cc(Br)ccc24)C(=O)c2ncccc2C3=O)CC1
0.25

###

The entries below come with measured MIC values attached.
System: Staphylococcus aureus
Experiment: Antibacterial activity against methicillin-resistant Staphylococcus aureus 1012029 clinical isolate after 20 to 24 hrs by two-fold microdilution method
Type: functional
Report the value in µg/mL with no unit label.

CN1CCN(CCCCCCOC(=O)c2c3c(n4cc(Br)ccc24)C(=O)c2ncccc2C3=O)CC1	0.016
O=C1c2cccnc2C(=O)c2c1c(C(=O)OCCCCN1CCOCC1)c1ccc(Br)cn21	0.25
CN(C)CCCCCOC(=O)c1c2c(n3cc(Br)ccc13)C(=O)c1ncccc1C2=O	0.25

Turning now to a further compound:
// MIC lookup, key: O=C1c2cccnc2C(=O)c2c1c(C(=O)OCCCCCCN1CCCCC1)c1ccc(Br)cn21
0.063
